So I've got a bunch of molecules here, and I need their IC50 values.
- System Tested: Avi-KRAS G12D (1-169) GppNHp/RAF1 RBD-3×FLAG (52-151) (Homo sapiens, UniProt P01116, G12D)
- Construct: Avi-KRAS G12D (1-169) GppNHp
- Sequence (P01116 1-169 isoform P01116-2 G12D limits assumed): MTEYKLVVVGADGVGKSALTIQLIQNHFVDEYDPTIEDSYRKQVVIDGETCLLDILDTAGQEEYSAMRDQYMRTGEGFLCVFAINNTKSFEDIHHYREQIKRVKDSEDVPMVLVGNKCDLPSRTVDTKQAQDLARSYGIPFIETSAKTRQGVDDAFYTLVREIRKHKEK
- Assay Text: HTRF Raf1-KRAS G12D-GppNHp disruption assay
- Measurement Parameters: 1 h incubation
- Method: The HTRF assay employed the following protocol: Compounds were dispensed in assay plate (384-well, Grenier Bione #784075) using Echo (model 555) with dose response settings: 200 nL final volume, titration from 100 μM as a 10-point dilution series. […] Plates were analyzed on an Envision plate reader using the following setting: Excitation 320 nm, Bandwidth […]; Emission 615 nm, Bandwidth […], Gain 100%, Flashes 100, Lag 60 μs. […] Data was plotted and analyzed using Prism 8.

**Q:** Query IC50 for N#Cc1c(O)cccc1-c1c(C(F)(F)F)cc2c(N3CC4CCC(C3)N4)nc(OCC34CCCN3CCC4)nc2c1F
**A:** 10 to 30 µM

**Q:** Indicate its recorded IC50; the molecule in question is CC(=O)N1CC(Nc2nc(OC[C@@H]3CCCN3C)nc3c(F)c(-c4ccc(F)c5sc(N)nc45)c(Cl)cc23)C1
**A:** 10 to 30 µM

**Q:** Answer with the recorded IC50 of CC(F)(F)c1cc2c(N3CCNCC3)nc(OCC34CCCN3CCC4)nc2c(F)c1-c1ccc(F)c2sc(N)nc12 only.
**A:** 1 to 10 µM

**Q:** Please give the documented IC50 of CN(c1nc(OC[C@@H]2C[C@@H](F)CN2C)nc2c(F)c(-c3ccc(F)c4sc(N)nc34)c(-c3ccoc3)cc12)C1CN(C(=O)CN)C1
**A:** 10 to 30 µM

**Q:** Give the measured IC50 for CN1C[C@H](F)C[C@H]1COc1nc(N2CCNCC2)c2cc(-c3ccoc3)c(-c3ccc(F)c4sc(N)nc34)c(F)c2n1
**A:** 10 to 30 µM

**Q:** Determine its reported IC50: CN(c1nc(OCC23CCCN2CCC3)nc2c(F)c(-c3ccc(F)c4sc(N)nc34)c(C(F)(F)F)cc12)C1CN(C(N)=O)C1
**A:** 1 to 10 µM

**Q:** For the molecule COc1c(Cl)c(-c2ccc(F)c3sc(N)nc23)c(F)c2ncnc(N3CCNCC3)c12 , report IC50.
**A:** 10 to 30 µM

###

- System Tested: Avi-KRAS G12D/Q25A (1-169) GppNHp/3×FLAG-PI3KCA (157-299) (Homo sapiens, UniProt P01116, G12D/Q25A)
- Construct: Avi-KRAS G12D/Q25A (1-169) GppNHp
- Sequence (P01116 1-169 isoform P01116-2 G12D/Q25A limits assumed): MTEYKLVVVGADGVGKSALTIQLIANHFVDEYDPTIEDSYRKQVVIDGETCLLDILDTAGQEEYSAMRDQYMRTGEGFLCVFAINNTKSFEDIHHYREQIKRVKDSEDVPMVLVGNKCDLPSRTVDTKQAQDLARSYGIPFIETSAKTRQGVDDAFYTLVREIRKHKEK
- Assay Text: HTRF PI3KCA-KRAS G12D/Q25A-GppNHp disruption assay
- Measurement Parameters: 1 h incubation
Parameter: IC50

**Q:** Give a short answer stating reported IC50 for CO[C@H]1CN2CCC[C@]2(COc2nc(N3CC4CCC(C3)N4)c3cc(C(F)(F)F)c(-c4ccc(F)c5sc(N)nc45)c(F)c3n2)C1 .
**A:** 0.1 to 1 µM

**Q:** Indicate the recorded IC50 value for this molecule: CN(c1nc(OCC23CCCN2CCC3)nc2c(F)c(-c3ccc(F)c4sc(N)nc34)c(C(F)(F)F)cc12)[C@H]1CC[C@H](N)CC1
**A:** 1 to 10 µM

**Q:** Please report IC50 for the following molecule: Nc1nc2c(-c3c(C(F)(F)F)cc4c(NC5CNC5)ncnc4c3F)ccc(F)c2s1
**A:** 10 to 30 µM

**Q:** Output measured IC50 for this item: N#Cc1cc2c(N3CC4CCC(C3)N4)nc(OC[C@@]34CCCN3C[C@H](F)C4)nc2c(Cl)c1-c1ccc(F)c2sc(N)c(C#N)c12
**A:** 1 to 10 µM

**Q:** Identify the reported IC50 for the following entry. N#Cc1c(N)sc2c(F)ccc(-c3c(Cl)cc4c(N5C[C@H]6CC[C@@H](C5)N6)nc(OC[C@@]56CCCN5C[C@H](F)C6)nc4c3F)c12
**A:** 0.1 to 1 µM

**Q:** Provide only the value of recorded IC50 for CN1CCC[C@H]1COc1nc(N2CCN(C(=O)CN)CC2)c2cc(Cl)c(-c3ccc(F)c4sc(N)nc34)c(F)c2n1
**A:** 10 to 30 µM

**Q:** Give IC50 for the following molecule: Nc1nc2c(-c3c(C(F)(F)F)cc4c(N5CC[C@@H]6CCNC[C@@H]65)nc(OCC56CCCN5CCC6)nc4c3F)ccc(F)c2s1
**A:** 1 to 10 µM

**Q:** Give IC50 for CN(c1nc(OCC23CCCN2CCC3)nc2c(F)c(-c3ccc(F)c4sc(N)nc34)c(C(F)(F)F)cc12)[C@H]1C[C@H]2CC[C@@H]1N2 (atropisomer, axis not shown)
**A:** 1 to 10 µM

**Q:** Look up and state reported IC50 for Nc1nc2c(-c3cc4nc(OC[C@@]56CCCN5C[C@H](F)C6)nc(N5CC6CCC(C5)N6)c4cc3C(F)(F)F)c(F)cc(F)c2s1
**A:** 0.1 to 1 µM

**Q:** Identify measured IC50 corresponding to CO[C@H]1CN2CCC[C@@]2(COc2nc(N3CC4CCC(C3)N4)c3cc(C(F)(F)F)c(-c4ccc(F)c5sc(N)nc45)c(F)c3n2)C1
**A:** 0.1 to 1 µM

**Q:** Give the reported value of IC50 for this record: CN1CCC[C@H]1COc1nc(N2CC3CNCC3C2)c2cc(Cl)c(-c3ccc(F)c4sc(N)nc34)c(F)c2n1 (stereo partly drawn)
**A:** 10 to 30 µM

**Q:** Tell me its IC50 given CN(c1nc(OC[C@@]23CCCN2C[C@H](F)C3)nc2c(F)c(-c3ccc(F)c4sc(N)c(C#N)c34)c(C(F)(F)F)cc12)[C@@H]1CCN[C@@H]1CF as the entry.
**A:** 0.1 to 1 µM
